B1: ANKRD17 (parent)
chain: EVLRRLTSSVSCALDEAAAALTRM

Variants of: B1
Assay: protein stability index of a GFP-peptide fusion (GPS, HEK-293T) (PSI 1-6); higher = more stable;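 note: lentivirally expressed fusions sorted by FACS into six bins by GFP to DsRed ratio, PSI derived from sequencing read proportions per bin multiplied by bin number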
Details: c terminus: a fixed tail appended
quantity: protein stability index

// worked examples, protein stability index included
chain-sequence: EVLRRLTSSVSCALDESAAALTRM
protein stability index: 2.16

chain-sequence: EVLRRLTSSVSCELDEAAAALTRM
protein stability index: 2.34

chain-sequence: EVLRRLTSSVSCALHEAAAALTRM
protein stability index: 1.97

chain-sequence: EVLRRLTSSVSCALDEAAAALTWM
protein stability index: 3.5

# input for lookup
Data request: Would you kindly share the measured protein stability index for EVLRRLKSSVSCALDEAAAALTRM ?
Data returned: 3.26
